For each of the molecules below, state its IC50.
Tested on: KLN mouse squamous cell carcinoma cells
assay_method_text: Cell proliferation SRB assay, KLN
Assay type: cell-based
experimental_parameters: KLN, read-out: IC50 (μM), concentration that inhibits cell proliferation by 50%
Enter your answer as a number in µM; do not include the unit.

Q: Consider the molecule O=C(Nc1ccc(Cl)cc1)Nc1ccc2nonc2c1 [KM094748] and give its measured IC50.
A: 8.5

Q: Consider the molecule O=C(Nc1ccc(Cl)c(Cl)c1)Nc1ccc2nnsc2c1 [Compound 1781] and give its measured IC50.
A: 17.1

Q: Consider the molecule O=C(Nc1ccc(Cl)c(C(F)(F)F)c1)Nc1ccc2nnsc2c1 [Compound 1780] and give its measured IC50.
A: 14.8

* * *

Test system: PC-3 human prostate cancer cells
assay_method_text: Cell proliferation SRB assay, PC-3
Format: cell-based
experimental_parameters: read-out: IC50 (μM), concentration that inhibits cell proliferation by 50%
Method: Reduced availability of the ternary complex causes inhibition of translation initiation and thereby of cell proliferation. […] The effects of N,N′-diarylureas on the proliferation KLN mouse squamous cell carcinoma, CRL-2351 human breast, CRL-2813 human melanoma, A549 human lung and PC-3 human prostate cancer cell lines were tested. […] Cell Growth Assay: Cell Growth was Measured by the SRB Assay.
quantity: IC50 (µM)
Enter your answer as a number in µM; do not include the unit.

Q: Form: Entry = O=C(Nc1ccc(Cl)c(Cl)c1)Nc1ccc2nnsc2c1 | System = PC-3 human prostate cancer cells | IC50 = ____
A: 1.1

Q: Form: Entry = O=C(Nc1ccc(Cl)c(C(F)(F)F)c1)Nc1ccc2nnsc2c1 | System = PC-3 human prostate cancer cells | IC50 = ____
A: 0.9

Q: Form: Entry = O=C(Nc1ccc(Cl)cc1)Nc1ccc2nonc2c1 | System = PC-3 human prostate cancer cells | IC50 = ____
A: 1.4

* * *

For each of the compounds below, state its fold induction at 10 µM.
Test system: eIF2.GTP.Met-tRNAi ternary complex
assay_method_text: Ternary complex assay: dual luciferase F-luc/R-luc ratio in KLN-tTA/pBISA-DL(ATF-4) cells (HTS screen, 96-well hit confirmation, dose response)
Assay type: cell-based, mouse
experimental_parameters: Mus musculus; 10 μm; cell line not stated
Please give only the number in your answer, with no unit.

Q: Consider the compound FC(F)(F)c1cc(NC(=S)Nc2cc(C(F)(F)F)cc(C(F)(F)F)c2)cc(C(F)(F)F)c1 and give its measured fold induction at 10 µM.
A: 25

Q: Consider the compound Clc1ccc(Nc2nncn2-c2ccc(Cl)c(Cl)c2)cc1Cl and give its measured fold induction at 10 µM.
A: 1

Q: Consider the compound CNC(=O)c1cc(Oc2ccc(NC(=S)Nc3ccc(Cl)c(C(F)(F)F)c3)cc2)ccn1 and give its measured fold induction at 10 µM.
A: 2

Q: Consider the compound FC(F)(F)c1cc(NC(=S)Nc2ccc(Cl)c(C(F)(F)F)c2)ccc1Cl and give its measured fold induction at 10 µM.
A: 8

Q: Consider the compound COc1ccc(NC(=S)Nc2cc(C(F)(F)F)cc(C(F)(F)F)c2)cc1 and give its measured fold induction at 10 µM.
A: 2.5

Q: Consider the compound FC(F)(F)c1cc(NC(=S)Nc2ccc(Cl)cc2)ccc1Cl and give its measured fold induction at 10 µM.
A: 3

Q: Consider the compound CC(C)(C)c1ccccc1NC(=S)Nc1cc(C(F)(F)F)cc(C(F)(F)F)c1 and give its measured fold induction at 10 µM.
A: 1

Q: Consider the compound FC(F)(F)c1cc(NC(=S)Nc2ccc(Cl)c(Cl)c2)ccc1Cl and give its measured fold induction at 10 µM.
A: 4

* * *

Test system: eIF2.GTP.Met-tRNAi ternary complex
assay_method_text: ATF-4 assay (firefly/renilla luciferase ratio) in CRL-2351 cell line
Type: cell-based, human
experimental_parameters: Homo sapiens, read-out: ATF-4 C[5] (μM): concentration corresponding to an activity threshold of 5
quantity: EC (activity threshold of 5) (µM)
Enter your answer as a number in µM; do not include the unit.

Q: Consider the compound Cc1ccc(NC(=O)Nc2cc(C(F)(F)F)cc(C(F)(F)F)c2)cc1OCCN1CCNCC1 and give its measured EC (activity threshold of 5).
A: 6

Q: Consider the compound Cc1ccc(NC(=O)Nc2ccc(Cl)c(Cl)c2)cc1OCCN(C)C and give its measured EC (activity threshold of 5).
A: 8

Q: Consider the compound Cc1ccc(NC(=O)Nc2ccc(Cl)c(Cl)c2)cc1OCCN1CCNCC1 and give its measured EC (activity threshold of 5).
A: 7

Q: Consider the compound Cc1ccc(NC(=O)Nc2ccc(Cl)c(Cl)c2)cc1O and give its measured EC (activity threshold of 5).
A: 11

Q: Consider the compound O=C(Nc1ccc(Cl)c(C(F)(F)F)c1)Nc1ncccc1O and give its measured EC (activity threshold of 5).
A: 10

Q: Consider the compound Cc1ccc(NC(=O)Nc2cc(C(F)(F)F)cc(C(F)(F)F)c2)cc1O and give its measured EC (activity threshold of 5).
A: 3

Q: Consider the compound Cc1ccc(NC(=O)Nc2ccc(Cl)c(Cl)c2)cc1OCCN1CCOCC1 and give its measured EC (activity threshold of 5).
A: 9

Q: Consider the compound O=C(Nc1ccc(Cl)c(Cl)c1)Nc1ncccc1O and give its measured EC (activity threshold of 5).
A: 13

Q: Consider the compound O=C(Nc1ccc(Cl)c(C(F)(F)F)c1)Nc1ccc(Cl)c(C(F)(F)F)c1 and give its measured EC (activity threshold of 5).
A: 1.5

* * *

System: eIF2.GTP.Met-tRNAi ternary complex
assay_method_text: ATF-4 assay (firefly/renilla luciferase ratio) in CRL-2351 cell line
Assay type: cell-based, human
experimental_parameters: read-out: ATF-4 Cmax (μM): concentration corresponding to the maximal activity
quantity: Cmax (µM)
Enter your answer as a number in µM; do not include the unit.

Q: Consider the compound Cc1ccc(NC(=O)Nc2ccc(Cl)c(C(F)(F)F)c2)cc1O and give its measured Cmax.
A: 10

Q: Consider the compound Cc1ccc(NC(=O)Nc2cc(C(F)(F)F)cc(C(F)(F)F)c2)cc1OCCN1CCNCC1 and give its measured Cmax.
A: 10

Q: Consider the compound O=C(Nc1cc(C(F)(F)F)cc(C(F)(F)F)c1)Nc1cc(C(F)(F)F)cc(C(F)(F)F)c1 and give its measured Cmax.
A: 2.5

Q: Consider the compound O=C(Nc1ccc(Cl)c(Cl)c1)Nc1ccc(Cl)c(Cl)c1 and give its measured Cmax.
A: 5

Q: Consider the compound Cc1ccc(NC(=O)Nc2cc(C(F)(F)F)cc(C(F)(F)F)c2)cc1OCCN1CCOCC1 and give its measured Cmax.
A: 10

* * *

For each of the compounds below, state its fold induction at 10 µM.
System: eIF2.GTP.Met-tRNAi ternary complex
assay_method_text: Ternary complex assay: dual luciferase F-luc/R-luc ratio in KLN-tTA/pBISA-DL(ATF-4) cells (HTS screen, 96-well hit confirmation, dose response)
Assay type: cell-based, mouse
experimental_parameters: Mus musculus; 10 μm; cell line not stated

Q: Consider the compound CC(C)c1ccccc1NC(=S)Nc1cc(C(F)(F)F)cc(C(F)(F)F)c1 and give its measured fold induction at 10 µM.
A: 11

Q: Consider the compound COc1ccc(NC(=S)Nc2ccccc2)cc1 and give its measured fold induction at 10 µM.
A: 1

Q: Consider the compound S=C(Nc1ccc(Cl)c(Cl)c1)Nc1ccc(Cl)c(Cl)c1 and give its measured fold induction at 10 µM.
A: 3.5

Q: Consider the compound Cc1ccc(NC(=S)Nc2ccc(Cl)c(C(F)(F)F)c2)cc1O and give its measured fold induction at 10 µM.
A: 7

Q: Consider the compound FC(F)(F)c1cc(NC(=S)Nc2ccccc2)cc(C(F)(F)F)c1 and give its measured fold induction at 10 µM.
A: 6

* * *

Test system: eIF2.GTP.Met-tRNAi ternary complex
assay_method_text: Ternary complex assay: dual luciferase F-luc/R-luc ratio in KLN-tTA/pBISA-DL(ATF-4) cells (HTS screen, 96-well hit confirmation, dose response)
Format: cell-based, mouse
experimental_parameters: Mus musculus; 10 μm; cell line not stated
Text: For assay development, a bi-directional plasmid was designed in which a common promoter/enhancer complex drives the transcription of firefly luciferase (F-luc) ORF fused to the 5′ untranslated region (UTR) of ATF-4, and of the renilla luciferase (R-luc) ORF fused to a 90-nucleotide 5′ UTR derived from the plasmid (FIG. 6A). […]
quantity: fold induction at 10 µM

Q: Consider the molecule FC(F)(F)c1cc(NC(=S)Nc2ccc(Cl)cc2)cc(C(F)(F)F)c1 [Compound 1800] and give its measured fold induction at 10 µM.
A: 4

Q: Consider the molecule S=C(Nc1ccc(Cl)cc1)Nc1ccc(Cl)c(Cl)c1 [Compound 1805] and give its measured fold induction at 10 µM.
A: 8

Q: Consider the molecule Cc1ccc(NC(=S)Nc2cc(C(F)(F)F)cc(C(F)(F)F)c2)cc1O [Compound 1803] and give its measured fold induction at 10 µM.
A: 12

Q: Consider the molecule FC(F)(F)c1cc(NC(=S)Nc2ccc(Cl)c(Cl)c2)cc(C(F)(F)F)c1 [Compound 1798] and give its measured fold induction at 10 µM.
A: 5

Q: Consider the molecule FC(F)(F)c1ccc(NC(=S)Nc2ccc(Cl)c(Cl)c2)cc1 [Compound 1797] and give its measured fold induction at 10 µM.
A: 1

Q: Consider the molecule FC(F)(F)c1cc(Nc2nncn2-c2cc(C(F)(F)F)cc(C(F)(F)F)c2)cc(C(F)(F)F)c1 [Compound 1836] and give its measured fold induction at 10 µM.
A: 1

Reference for the values: patent US9421211B2
